- studySystem: soluble human BACE1 catalytic domain (Homo sapiens (Human))
- Sequence (P56817 75-416): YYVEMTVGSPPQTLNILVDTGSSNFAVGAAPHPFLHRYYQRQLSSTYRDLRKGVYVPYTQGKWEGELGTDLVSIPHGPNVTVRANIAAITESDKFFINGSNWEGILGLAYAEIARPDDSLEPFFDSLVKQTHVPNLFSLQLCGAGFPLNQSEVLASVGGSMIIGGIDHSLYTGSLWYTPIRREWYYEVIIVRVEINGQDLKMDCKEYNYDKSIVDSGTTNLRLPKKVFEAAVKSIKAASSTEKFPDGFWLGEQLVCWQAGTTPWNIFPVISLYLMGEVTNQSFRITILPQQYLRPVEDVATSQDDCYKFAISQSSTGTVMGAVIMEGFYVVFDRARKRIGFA
- testSummary: BACE1 HTRF FRET Assay
- assayContext: read-out: BACE1 inhibition, % Inh. at 10 μM, at 10 μM
measuredEndpoint: inhibition at 10 µM (%)
The response must be a number in % with no trailing unit.

# compound, inhibition at 10 µM / %
records = [
    ("CC1(C)C(=N)N[C@](C)(c2cc(N)cc(F)c2F)CS1(=O)=O", 51),
]

Briefly, inhibition at 10 µM measured for `C[C@@]1(c2cc(N)ccc2F)CS(=O)(=O)[C@](C)(CC2CC2)C(=N)N1` : 37

Briefly, inhibition at 10 µM measured for C[C@@]1(c2cccc(O)c2)C(=N)N[C@](C)(c2cc(F)ccc2F)CS1(=O)=O [Example 34c-b] : 48
